Measured log10(Kd) accompanies every entry in the list below.
MEASURED_ON: galectin-3 (Homo sapiens, UniProt P17931)
Sequence (P17931 whole entry): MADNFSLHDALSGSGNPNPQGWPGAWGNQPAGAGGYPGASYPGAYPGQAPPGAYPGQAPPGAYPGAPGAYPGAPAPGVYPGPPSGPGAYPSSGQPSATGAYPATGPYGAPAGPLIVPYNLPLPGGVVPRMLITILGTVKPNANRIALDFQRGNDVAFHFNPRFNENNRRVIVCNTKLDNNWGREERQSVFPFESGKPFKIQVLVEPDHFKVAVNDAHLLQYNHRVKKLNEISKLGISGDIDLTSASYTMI
ASSAY_REMARKS: Fluorescence anisotropy assay, affinity for galectin-3
CONDITION_DETAILS: compound as inhibitor of the interaction between galectin and a fluorescein tagged saccharide probe; read-out: Gal-3 Kd
ASSAY_METRIC: log10(Kd) (log10 of the value in nM)

{"COMPOUND": "COC1C(n2cc(-c3csc(O)n3)nn2)[C@@H](O)C(CO)O[C@H]1c1ccnn1-c1cc(Cl)c(Cl)cc1C(F)(F)F (stereo partly shown)", "log10(Kd)": 3.97}
{"COMPOUND": "COC1C(n2cc(-c3nc(Cl)cs3)nn2)[C@@H](O)C(CO)O[C@H]1c1ccnn1-c1cc(Cl)c(F)cc1C(F)(F)F (stereo partly shown)", "log10(Kd)": 2.93}
{"COMPOUND": "COC1C(n2cc(-c3nccs3)nn2)[C@@H](O)C(CO)O[C@H]1c1ccnn1-c1cc(Cl)ccc1C(F)(F)F (stereo partly shown)", "log10(Kd)": 3.88}
{"COMPOUND": "COC1C(n2cc(-c3nc(Cl)cs3)nn2)[C@@H](O)C(CO)O[C@H]1c1cc(C)nn1-c1ccc2nc(C)sc2c1 (stereo partly shown)", "log10(Kd)": 3.30}
{"COMPOUND": "COC1C(n2cc(-c3nc(Cl)cs3)nn2)[C@@H](O)C(CO)O[C@H]1c1cc(C(N)=O)nn1-c1cc(Cl)ccc1C(F)(F)F (stereo partly shown)", "log10(Kd)": 2.51}
{"COMPOUND": "COC1C(n2cc(-c3nc(Cl)cs3)nn2)[C@@H](O)C(CO)O[C@H]1c1ccnn1-c1cc(Cl)ccc1C(F)(F)F (stereo partly shown)", "log10(Kd)": 2.65}
{"COMPOUND": "COC1C(n2cc(-c3csc(O)n3)nn2)[C@@H](O)C(CO)O[C@H]1c1ccnn1-c1cc(Cl)ccc1C(F)(F)F (stereo partly shown)", "log10(Kd)": 3.62}
